test system: NQO1 specific enzyme activity in BEAS-2B cells; assay: BEAS-2B NQO1 MTT assay; format: cell-based; details: NQO1 specific enzyme activity induction in BEAS-2B cells, 48 hours; read-out: EC50
pEC50: −log10 of the molar value.
Reported pEC50 values follow for various compounds

Field: example entries. Status: answers known.
* CC[C@@H]1CN([C@H]2CCc3ccc([C@@H](c4ccc5c(nnn5C)c4C)C(C)(C)C(=O)O)cc32)Cc2cnccc2O1 (relative stereo) [Example 72] | 8.00 to 9.00
* CC[C@@H]1CN([C@H]2CCc3ccc([C@@H](c4ccc5c(nnn5C)c4C)C(C)(C)C(=O)O)cc32)Cc2cnccc2O1 (relative stereo) [Example 85] | 7.00 to 8.00

Shifting focus to the compound that follows.
Name the recorded pEC50 for Cc1c(C(CC(=O)O)c2ccc3c(c2)C2C(CCN2C(=O)C(C)c2ccccc2)C3)ccc2c1nnn2C (stereo not drawn) [Example 8] .
5.00 to 6.00

----------
system: NQO1 specific enzyme activity in BEAS-2B cells; assay: BEAS-2B NQO1 MTT assay; format: cell-based; conditions: Homo sapiens, BEAS-2B, 48 h, NQO1 specific enzyme activity induction in BEAS-2B cells, 48 hours; read-out: EC50
Counter-ions that a name gives are not always drawn.
readout: EC50

• Cc1c([C@@H](CC(=O)O)c2ccc3c(c2)[C@H](N2Cc4ccccc4OC(C)(C)C2)CC3)ccc2c1nnn2C (single isomer, unassigned) [Example 41, Formic Acid Salt] = 1 to 10 nM
• Cc1c([C@H](c2ccc3c(c2)[C@H](N2Cc4ccncc4OC(C)(C)C2)CC3)C(C)(C)C(=O)O)ccc2c1nnn2C (racemic) [Example 70, Trifluoroacetic acid salt] = 1 to 10 nM
• Cc1c(C(CC(=O)O)c2ccc3c(c2)C(N2Cc4ccccc4OC(C)(C)C2)CC3)ccc2c1nnn2C (centres unmarked) [Example 40, Formic Acid Salt] = 1 to 10 nM
• Cc1c([C@@H](c2ccc3c(c2)[C@@H](N2Cc4ccccc4OC(C)(C)C2)CC3)C(C)(C)C(=O)O)ccc2c1nnn2C (stereo in doubt) = 100 to 1000 nM

Which measured EC50 value corresponds to Cc1c(C(CC(=O)O)c2ccc3c(c2)C2C(CCN2C(=O)C(C)c2ccccc2)C3)ccc2c1nnn2C (centres unmarked) ?
1000 to 10000 nM

Another molecule to look at: CC[C@@H]1CN(C2CCc3ccc(C(CC(=O)O)c4ccc5c(nnn5C)c4C)cc32)Cc2cnccc2O1 (some centres unmarked) [Example 57, Formic Acid Salt]
100 to 1000 nM

----------
system: NQO1 specific enzyme activity in BEAS-2B cells; assay: BEAS-2B NQO1 MTT assay; format: cell-based; details: Homo sapiens, BEAS-2B, 48 h, NQO1 specific enzyme activity induction in BEAS-2B cells, 48 hours; read-out: EC50
Structures can show the parent of a compound that is named as a salt.
readout: EC50

See these solved cases before continuing.
- Cc1c(C(CC(=O)O)c2ccc3c(c2)C(N2Cc4ccccc4O[C@H](C)C2)CCC3)ccc2c1nnn2C (stereo partly shown): 0.1 to 1 µM
- Cc1c([C@H](c2ccc3c(c2)[C@@H](N2Cc4ncccc4OC(C)(C)C2)CC3)C(C)(C)C(=O)O)ccc2c1nnn2C (racemic): 0.01 to 0.1 µM
- CCCc1cn(CCC(CC(=O)O)c2ccc3c(c2)C(N2Cc4ccccc4OC(C)(C)C2)CC3)nn1 (stereo not shown) [Example 63, Trifluoroacetic Acid Salt]: 1 to 10 µM
- Cc1c(C(CC(=O)O)c2ccc3c(c2)C2C(CC3)CC(=O)N2CC2CCCCC2)ccc2c1nnn2C (stereo not shown): 0.1 to 1 µM
- Cc1c(C(c2ccc3c(c2)C(N2Cc4ccccc4OC(C)(C)C2)CC3)C(C)(C)C(=O)O)ccc2c1nnn2C (stereo not shown) [Example 27, Formic Acid Salt]: < 0.001 µM

Using the record for CC[C@@H]1CN(C2CCc3ccc(C(c4ccc5c(nnn5C)c4C)C(C)(C)C(=O)O)cc32)Cc2cnccc2O1 (stereo partly shown) [Example 37, Formic Acid Salt] , report its EC50.
0.001 to 0.01 µM

Similarly, CCn1cc(CCC(CC(=O)O)c2ccc3c(c2)C2C(CCN2C(=O)OC(C)(C)C)C3)nn1 (stereo not shown) ?
1 to 10 µM

Next compound up: CC[C@@H]1CN([C@@H]2CCc3ccc([C@H](CC(=O)O)c4ccc5c(nnn5C)c4C)cc32)Cc2ccccc2O1 (relative stereo)
0.01 to 0.1 µM

Also CC[C@@H]1CN([C@H]2CCc3ccc([C@H](CC(=O)O)c4ccc5c(nnn5C)c4C)cc32)Cc2ccccc2O1 (relative stereo) ?
0.01 to 0.1 µM

Also, Cc1c(C(CC(=O)O)c2ccc3c(c2)C(N2CCOc4ccccc4C2)CC3)ccc2c1nnn2C (stereo not shown) [Example 58, Formic Acid Salt] please.
0.1 to 1 µM

How about this compound: Cc1c(C(c2ccc3c(c2)C(N2Cc4cccnc4OC(C)(C)C2)CC3)C(C)(C)C(=O)O)ccc2c1nnn2C (stereo not shown) [Example 34, Formic Acid Salt]
0.001 to 0.01 µM

And then Cc1c(C(c2ccc3c(c2)C(N2CCOc4ncccc4C2)CC3)C(C)(C)C(=O)O)ccc2c1nnn2C (stereo not shown) [Example 54, Formic Acid Salt, Formic Acid Salt] , what is it?
0.1 to 1 µM

Same question for Cc1ccc2c(c1)CN(C1CCc3ccc(C(CC(=O)O)c4ccc5c(nnn5C)c4C)cc31)C[C@@H](C)O2 (stereo partly shown) [Example 47, Formic Acid Salt] please.
0.01 to 0.1 µM
